Data origin: patent US20260062443A1

Molecular target: Human complement C1s enzyme (Homo sapiens)
Sequence (P09871 438-688 limits assumed): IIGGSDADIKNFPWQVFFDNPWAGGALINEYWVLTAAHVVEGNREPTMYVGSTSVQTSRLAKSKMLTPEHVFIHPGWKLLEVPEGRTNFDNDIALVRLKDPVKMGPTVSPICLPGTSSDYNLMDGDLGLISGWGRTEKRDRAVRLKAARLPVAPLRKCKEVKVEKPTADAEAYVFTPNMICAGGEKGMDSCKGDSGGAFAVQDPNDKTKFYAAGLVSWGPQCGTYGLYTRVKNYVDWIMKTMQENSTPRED
Sequence (P09871 16-437 partner limits assumed): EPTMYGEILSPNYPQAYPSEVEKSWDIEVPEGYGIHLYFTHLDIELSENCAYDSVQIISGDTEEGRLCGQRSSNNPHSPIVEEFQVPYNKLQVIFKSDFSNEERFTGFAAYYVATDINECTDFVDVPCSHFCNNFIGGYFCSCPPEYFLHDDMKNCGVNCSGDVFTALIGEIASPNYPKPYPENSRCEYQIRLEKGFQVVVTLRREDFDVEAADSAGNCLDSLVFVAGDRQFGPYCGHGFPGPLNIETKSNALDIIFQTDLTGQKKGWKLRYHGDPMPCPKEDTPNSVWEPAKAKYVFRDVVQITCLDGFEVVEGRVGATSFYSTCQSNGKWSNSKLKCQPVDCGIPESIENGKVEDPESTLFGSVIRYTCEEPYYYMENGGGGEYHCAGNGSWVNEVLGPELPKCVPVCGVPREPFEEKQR
Assay: Human C1s enzyme assay
Assay type: biochemical
Details: human complement C1s enzyme 1.16 nM, substrate Z-L-Lys-SBzl 100 μM, 5 min preincubation; read-out: IC50 (Stars), C1s Inhibiting Activity
Measured Attribute: IC50

Molecule	Result
O=C(NCc1cc2cnccc2[nH]1)[C@@H]1CC2(CN1C(=O)CN1Cc3cc(-c4ccc(F)cc4)ccc3C1=O)OCCO2	100 to 1000 nM
C[C@@H](NC(=O)[C@@H]1C[C@](F)(Cn2ccnn2)CN1C(=O)CNC(=O)c1ccc2c(c1)Oc1ccccc1S2)c1cc2cnccc2[nH]1	< 100 nM
Cc1ccsc1Oc1cccc(C(=O)NCC(=O)N2C[C@H](OC(F)F)C[C@H]2C(=O)NCc2cc3cnccc3[nH]2)c1	< 100 nM
O=C(NCC(=O)N1C[C@H](OC(F)F)C[C@H]1C(=O)N[C@H](CO)c1cc2cnccc2[nH]1)c1ccc(Oc2ccc(F)cc2)cc1	100 to 1000 nM
O=C(NCC(=O)N1CC2(C[C@H]1C(=O)NCc1cc3cnccc3[nH]1)OCCO2)c1ccc(-c2ccccc2)cc1	< 100 nM
C[C@@]12C[C@@H]1N(C(=O)CNC(=O)c1ccc(Oc3ccc(C(F)(F)F)cc3)cc1)[C@H](C(=O)NCc1cc3cnccc3[nH]1)C2	100 to 1000 nM
C[C@@H](NC(=O)C1CSCN1C(=O)CNC(=O)c1ccc2c(c1)Oc1ccccc1S2)c1cc2cnccc2[nH]1 (stereo partly shown)	< 100 nM
O=C(NCC(=O)N1CC2(C[C@H]1C(=O)NCc1cc3ccccc3[nH]1)OCCO2)c1ccc(Oc2ccccc2)cc1	> 1000 nM
Cc1ccc(Oc2cccc(C(=O)NCC(=O)N3CCC[C@H]3C(=O)NCc3cc4cnccc4[nH]3)c2)c(F)c1	< 100 nM
C[C@@H](NC(=O)[C@@H]1CC2(CCCCC2)CN1C(=O)CNC(=O)c1ccc2c(c1)Oc1ccccc1S2)c1cc2cnccc2[nH]1	< 100 nM
CC1(C)c2ccccc2-c2cc(C(=O)NCC(=O)N3C[C@H](OC(F)F)C[C@H]3C(=O)NCc3cc4cnccc4[nH]3)ccc21	< 100 nM
O=C(NCC(=O)N1CC2(C[C@H]1C(=O)NCc1cc3cnccc3s1)OCCO2)c1cccc(Oc2ccc(F)cc2)c1	100 to 1000 nM
C[C@@H](NC(=O)[C@@H]1C[C@@H](OC(F)F)CN1C(=O)CN1Cc2cc(-c3ccc(F)cc3Cl)ccc2C1=O)c1cc2cnccc2[nH]1	< 100 nM
C[C@@H](NC(=O)[C@@H]1C[C@](F)(CF)CN1C(=O)CNC(=O)c1ccc2c(c1)-c1ccccc1C2(F)F)c1cc2cnccc2[nH]1	100 to 1000 nM
Cc1ccc(Oc2ccc(C(=O)NCC(=O)N3C[C@H](OC(F)F)C[C@H]3C(=O)NCc3cc4cnccc4[nH]3)cc2)c(F)c1	< 100 nM
COC[C@@]1(F)C[C@@H](C(=O)N[C@@H](C)c2cc3cnccc3[nH]2)N(C(=O)CNC(=O)c2ccc(Oc3ccccc3)cc2)C1	> 1000 nM
